# Subject Of Test: D(2) dopamine receptor (Homo sapiens)
# Test Description: HTS Assay for Allosteric Antagonists of the Human D2 Dopamine Receptor: Primary Screen for Antagonists; also: 0% is about no effect
# Test Settings: HEK293 TREx D2 cells, calcium flux, dopamine EC80; at 10 µM
Hit rate of the full screen: of about 340,000 compounds, about 6,900 (2%) were called active. Rule as the data show it: active = inhibition above about 30%; inactive = below that, where a call was filed. The sample holds actives, similar compounds and a random draw of the others, so the mix is not that of the screen.
The categories you may choose from are active, inactive

Just curious, what result did Cc1cc(C)cc(C(=O)NCC(=O)OCC(=O)N2CCCCC2)c1 get here?
inactive

Record: CCOc1ccc(C(=O)NCC(=O)N2CCCCCCC2)cc1OCC
inactive

Record: CCO[C@@H]1OC(C(=O)N2CCOCC2)=C[C@H](C)[C@H]1CCCO
inactive

Record: COCC(=O)Nc1c(C(=O)N2CCCC2)oc2ccccc12
inactive

Record: Nn1c(SCC(=O)NC2CCCC2)nnc1-c1ccccc1F
inactive

Record: CCCCn1c(N)c(N(CC(C)C)C(=O)CSc2ccc([N+](=O)[O-])cc2)c(=O)[nH]c1=O
inactive

Record: Nc1nc(SCc2ccc([N+](=O)[O-])cc2)c2ncn(C3OC(CO)C(O)C3O)c2n1 (stereo not given)
active

Record: CCN(c1ccccc1)S(=O)(=O)c1ccc(OCC(=O)N2CCCC2)cc1
inactive

Record: Cc1nc(N)nc(SCc2ccc([N+](=O)[O-])cc2)c1N
inactive

Record: CCO[C@H]1OC(C(=O)N2CCOCC2)=C[C@@H](c2ccc3c(c2)OCO3)[C@@H]1CCCO
inactive

====

# Subject Of Test: D(2) dopamine receptor (Homo sapiens)
# Test Description: HTS Assay for Allosteric Antagonists of the Human D2 Dopamine Receptor: Primary Screen for Antagonists; also: 0% is about no effect
# Test Settings: HEK293 TREx D2 cells, calcium flux, dopamine EC80; at 10 µM; active compounds read high
Among all 340,000 compounds or so, about 6,900 (2%) were called active. The full list was thinned out, with actives kept by preference.
inhibition vs 30%: at or above is 1, below is 0.

Check if inhibition >= 30% (inclusive). Item: C[C@H]1[C@H]2c3nc4ccccc4n3C[C@H]1ON2C1CCCCC1
1

Record: CCCn1nc(C(=O)Nc2ccc3nc(C)sc3c2)c2ccccc2c1=O
1

Record: Cc1ccc(OCC(=O)N2CCN(S(=O)(=O)c3ccc(Cl)s3)CC2)cc1C
0

Record: COc1ccccc1C(=O)Nc1ccc(OCC(=O)N2CCCCC2)cc1
0

Record: COc1ccccc1C(=O)NCCC(=O)NC(C)CCc1ccccc1 (stereo unspecified)
0

Record: CN1C(C(=O)NCc2ccco2)CC2Cn3c(nc4ccccc43)C21 (stereo unspecified)
0

====

# Subject Of Test: D(2) dopamine receptor (Homo sapiens) (UniProt P14416)
# Sequence (P14416 whole entry, looked up): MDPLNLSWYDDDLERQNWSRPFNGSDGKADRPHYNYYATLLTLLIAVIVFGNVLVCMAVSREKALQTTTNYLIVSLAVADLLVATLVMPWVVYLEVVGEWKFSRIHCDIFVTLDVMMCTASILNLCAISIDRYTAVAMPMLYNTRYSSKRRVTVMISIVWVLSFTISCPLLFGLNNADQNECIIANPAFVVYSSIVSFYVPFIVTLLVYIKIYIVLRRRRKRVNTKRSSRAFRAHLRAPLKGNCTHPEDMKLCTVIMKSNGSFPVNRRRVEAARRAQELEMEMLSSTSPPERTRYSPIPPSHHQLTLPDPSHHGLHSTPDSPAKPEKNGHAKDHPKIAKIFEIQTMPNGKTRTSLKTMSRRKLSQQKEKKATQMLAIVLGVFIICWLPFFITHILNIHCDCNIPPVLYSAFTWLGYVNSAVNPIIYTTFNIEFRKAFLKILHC
# Test Description: HTS Assay for Allosteric Antagonists of the Human D2 Dopamine Receptor: Primary Screen for Antagonists; also: 0% is about no effect
# Test Settings: HEK293 TREx D2 cells, calcium flux, dopamine EC80; at 10 µM; active compounds read high
The campaign covered roughly 340,000 compounds. About 6,900 (2%) were called active. The list comes from a sample in which actives are over-represented; it also holds close analogues and randomly drawn compounds.
inhibition vs 10%: at or above is True, below is False.

Check if inhibition >= 10% (inclusive). Item: CCC(C)NC(=O)c1ccc(NC(=O)CC2SC(N3CCCCC3)=NC2=O)cc1 (stereo not drawn)
False

Record: CCOC(=O)c1ccc(NC(=O)C2CC(=O)Nc3nc4ccccc4n32)cc1 (stereo not drawn)
False

Record: COc1ccc(-c2c(-c3cc(OC)cc(OC)c3)n(C)c3ccc(-c4ccn[nH]4)cc23)cc1
False

Record: CS(=O)(=O)c1ccc2nc(NC(=O)C3CCCCC3)sc2c1
True

Record: CCN(CC)CCNC(=O)c1ccc(NS(=O)(=O)c2ccc3c(c2)OCCO3)cc1
False

Record: O=C(CN1CCN(c2ccc(F)cc2)CC1)Nc1ccccc1
False

Record: COc1ccc(C(C)(C)C)cc1NC(=O)CCN1C(=O)C2CCCCC2C1=O (stereo not drawn)
True

Record: N#Cc1ccc(C(c2ccc(C#N)cc2)n2cncn2)cc1
True

Record: Nc1c(NCCc2ccccc2)c2ccccc2oc1=O
False

Record: CCCCN(C(=O)C1CCC1)c1c(N)n(Cc2ccccc2)c(=O)[nH]c1=O
False

Record: Cc1ccnc(NC(=O)C(C)N2C(=O)c3ccccc3C2=O)c1 (stereo not drawn)
False

Record: CCOc1ccccc1-c1nc(CN2CCC(C(=O)N3CCOCC3)CC2)c(C)o1
False

Record: Cc1sc2nc(COC(=O)C(NC(=O)c3ccc(Cl)cc3Cl)C(C)C)[nH]c(=O)c2c1C (stereo not drawn)
False

Record: COc1cc(F)c(C2=CC(=O)CC(C)(C)C2)cc1F
False

Record: CCCC(=O)Nc1ncnc2c1ncn2[C@@H]1O[C@@H]2OP(=O)(O)OC[C@H]2[C@H]1OC(=O)CCC
False

Record: COc1ccc(C(=O)NCCc2ccc(S(N)(=O)=O)cc2)cc1OC
True

Record: CS(=O)(=O)c1ccc2nc(NC(=O)CN3CCCCCC3)sc2c1
False

Record: Cc1nn(Cc2ccccc2)c(C)c1C(=O)NCCCN1CCCC1=O
False

Record: CC(=O)c1cc(C#N)c(SCC(=O)C(C)(C)C)nc1C
False

Record: CCN(C(=O)CSc1nc(N)cc(=O)[nH]1)C1CCS(=O)(=O)C1 (stereo not drawn)
True

Record: O=S(=O)(c1ccccc1)N1CCC(c2ccccc2)CC1
False

Record: COc1cc(OC)c(N2CC(C(=O)Nc3cc(Cl)ccc3N3CCOCC3)CC2=O)cc1Cl (stereo not drawn)
False

Record: CCN(CC)CCNC(=O)c1cc(S(C)(=O)=O)ccc1OC
True

Record: CCn1c(COc2ccccc2)nnc1SCC(=O)NCc1ccco1
False

Record: O=C(CCc1nc2sc3c(c2c(=O)[nH]1)CCCC3)NCC(=O)Nc1ccccc1Br
True

Record: O=C(CCN1CCN(c2ccccc2)CC1)NNC(=S)Nc1ccccc1
True

Record: CCOc1ccc(S(=O)(=O)NCCC(=O)NCC2CCCO2)cc1 (stereo not drawn)
False

Record: CCOc1ccc(S(=O)(=O)Nc2cccc(C(=O)NCC3(N4CCCCC4)CCCCC3)c2)cc1
False

Record: CCNC(=O)N1CCN(S(=O)(=O)c2ccc3c(c2)OCCCO3)CC1
True

Record: CC(C(=O)N1CCc2ccccc21)N(C)CC(=O)Nc1ccc(F)cc1 (stereo not drawn)
True

Record: Cc1cc(C)nc(NC(=O)C(C)N2C(=O)c3ccccc3C2=O)n1 (stereo not drawn)
True

Record: O=[N+]([O-])c1cc(S(=O)(=O)NCCc2ccccn2)ccc1Cl
False

Record: Cc1cccc(NC(=O)CN2CCN(CC(=O)NCC3(N4CCCCC4)CCCCC3)CC2)c1C
False

Record: O=C(CSc1nnc(CN2CCCC2)n1-c1ccc(F)cc1)c1ccc2c(c1)OCO2
False

Record: CCOC(=O)c1sc(NC(=O)C2CSC3(C)CCC(=O)N23)nc1C (stereo not drawn)
False

Record: Cc1ccc([C@@H]2CC=C(C(=O)O)[C@H](c3cccc(Cl)c3)N2S(=O)(=O)c2ccc(C)cc2)cc1
True

Record: CCOC(=O)c1cc(C)nc(S(C)(=O)=O)c1C#N
False

Record: CCNc1c(NS(=O)(=O)c2ccc(C3CCCCC3)cc2)c(=O)oc2ccccc12
True

Record: Cc1cc(OCCCN2CCN(Cc3ccccc3)CC2)ccc1[N+](=O)[O-]
False

Record: COc1ccc(F)c(-c2nc(CN3CCC(c4ccccc4)CC3)c(C)o2)c1
True

Record: O=C(CN1CCN(c2ccccc2)CC1)Nc1ccc(F)cc1
True

Record: Cc1ccc(C)c(NC(=O)CN(C)C(=O)c2ccc3ncsc3c2)c1
True

Record: COc1ccccc1CNC(=O)COC(=O)CNS(=O)(=O)c1ccc(NC(C)=O)cc1
False

Cited source for all entries: PubChem BioAssay AID485344
